Biological target: cdk2/cyclin E (Homo sapiens)
Test: Cyclin-dependent kinase assay, cdk2/cyclin E
Conditions: CDK2 IC50, nM, GST-pRb substrate, 10 µM ATP
Structures can show the parent of a compound that is named as a salt.
measurement_label: IC50

compound: Cc1ccc(C(=O)N2CCC(Nc3nc(N[C@H]4CC[C@H](N)CC4)nc4c3ncn4C3CCCC3)CC2)cc1
measurement_label: IC50
result: 71 nM
--
compound: CCC(C(=O)N1CCC(Nc2nc(N[C@H]3CC[C@H](N)CC3)nc3c2ncn3C2CCCC2)CC1)c1ccccc1 (relative stereo) [compound 41, dihydrochloride]
measurement_label: IC50
result: 93 nM
--
compound: N[C@H]1CC[C@H](Nc2nc(NC3CCN(S(=O)(=O)c4ccc(Cl)c([N+](=O)[O-])c4)CC3)c3ncn(C4CCCC4)c3n2)CC1 [compound 140, dihydrochloride]
measurement_label: IC50
result: 41 nM
--
compound: N[C@H]1CC[C@H](Nc2nc(NC3CCN(C(=O)c4cccnc4)CC3)c3ncn(C4CCCC4)c3n2)CC1
measurement_label: IC50
result: 441 nM
--
compound: Cl.Cl.N#Cc1ccc(S(=O)(=O)N2CCC(Nc3nc(N[C@H]4CC[C@H](N)CC4)nc4c3ncn4C3CCCC3)CC2)cc1 [compound 109, dihydrochloride]
measurement_label: IC50
result: 45 nM
--
compound: N[C@H]1CC[C@H](Nc2nc(NC3CCN(C(=O)C4CCC4)CC3)c3ncn(C4CCCC4)c3n2)CC1 [compound 63, dihydrochloride]
measurement_label: IC50
result: 66 nM

Give IC50 for all compounds that follow.
1. COc1ccccc1NC(=O)N1CCC(Nc2nc(N[C@H]3CC[C@H](N)CC3)nc3c2ncn3C2CCCC2)CC1 [compound 163, dihydrochloride]
2. N[C@H]1CC[C@H](Nc2nc(NC3CCN(C(=O)Nc4ccc(F)cc4)CC3)c3ncn(C4CCCC4)c3n2)CC1 [compound 147, dihydrochloride]
3. N[C@H]1CC[C@H](Nc2nc(NC3CCN(S(=O)(=O)c4ccc(Br)cc4)CC3)c3ncn(C4CCCC4)c3n2)CC1 [compound 114, dihydrochloride]
4. N[C@H]1CC[C@H](Nc2nc(NC3CCN(S(=O)(=O)c4cc(Cl)cc(Cl)c4O)CC3)c3ncn(C4CCCC4)c3n2)CC1 [compound 117, dihydrochloride]
5. N[C@H]1CC[C@H](Nc2nc(NC3CCN(C(=O)COc4ccccc4)CC3)c3ncn(C4CCCC4)c3n2)CC1 [compound 28, dihydrochloride]
6. C/C=C/C(=O)N1CCC(Nc2nc(N[C@H]3CC[C@H](N)CC3)nc3c2ncn3C2CCCC2)CC1 [compound 35, dihydrochloride]

Result block:
1. 57 nM
2. 46 nM
3. 15 nM
4. 31 nM
5. 52 nM
6. 55 nM

Query block: Dear colleague, please send me the reported IC50 for CC(=O)c1cccc(NC(=O)N2CCC(Nc3nc(N[C@H]4CC[C@H](N)CC4)nc4c3ncn4C3CCCC3)CC2)c1 [compound 189, dihydrochloride] when you can.
Result block: 28 nM
